Catalogue of molecules with associated IC50
# assaySystem: recombinant human arginases 1 and 2
# assayExplanation: Human Arginase Activity Assay (urea measurement, colorimetric)
# details: 37° C., 60 min, isoform not given, read-out: Activity Class (IC50)
Where a name gives a salt, the structure may show the parent alone.

Recorded IC50, per entry:
INSERT INTO results (molecule, measurementkind, recordedresult) VALUES
  ('CNC(=N)NCC(N)(CCCCB(O)O)C(=O)O (centres unmarked) [Example 7, hydrochloride]', 'IC50', '100 to 1000 nM'),
  ('CN(C)S(=O)(=O)N1CCC(C(N)(CCCCB(O)O)C(=O)O)CC1 (centres unmarked) [Example 15, hydrochloride]', 'IC50', '10000 to 100000 nM'),
  ('NC(=O)NCC(N)(CCCCB(O)O)C(=O)O (centres unmarked) [Example 3, hydrochloride]', 'IC50', '10000 to 100000 nM'),
  ('CNC(CCCCB(O)O)(CNC(=N)N)C(=O)O (centres unmarked) [Example 9, dihydrochloride]', 'IC50', '1 to 100 nM'),
  ('NC(CCCCB(O)O)(C(=O)O)C1CCN(S(N)(=O)=O)CC1 (centres unmarked) [Example 14, hydrochloride]', 'IC50', '1000 to 10000 nM');

Q: What value of measured IC50 is listed for CN(C)S(=O)(=O)NCC(N)(CCCCB(O)O)C(=O)O (centres unmarked) [Example 4, hydrochloride] ?
Result: 100 to 1000 nM

Q: What value of measured IC50 is listed for CNC(CCCCB(O)O)(CNS(N)(=O)=O)C(=O)O (centres unmarked) [Example 8, hydrochloride] ?
Result: 100 to 1000 nM

Q: What value of measured IC50 is listed for NC(CCCCB(O)O)(CNS(=O)(=O)NCc1ccccc1)C(=O)O (centres unmarked) [Example 5, hydrochloride] ?
Result: 1000 to 10000 nM

---

Catalogue of molecules with associated pIC50
# assaySystem: recombinant human arginases 1 and 2
# assayExplanation: Human Arginase Activity Assay (urea measurement, colorimetric)
# Type: biochemical
# details: 37° C., 60 min, isoform not given, read-out: Activity Class (IC50)
pIC50: −log10 of the molar value. Counter-ions that a name gives are not always drawn.

INSERT INTO assay_data (molecule, recordedresult) VALUES
  ('NC(CCCCB(O)O)(CCNS(N)(=O)=O)C(=O)O (stereo not shown) [Example 12, hydrochloride]', '5.00 to 6.00'),
  ('NC(CCCCB(O)O)(CCS(N)(=O)=O)C(=O)O (stereo not shown) [Example 10, hydrochloride]', '5.00 to 6.00'),
  ('CNS(=O)(=O)NCC(N)(CCCCB(O)O)C(=O)O (stereo not shown) [Example 6, hydrochloride]', '6.00 to 7.00');

Here is another molecule to look at.
Q: What measured pIC50 is associated with NC(CCCCB(O)O)(C(=O)O)C1CCN(S(=O)(=O)NCc2ccc(C(F)(F)F)cc2)CC1 (stereo not shown) [Example 16, hydrochloride] on recombinant human arginases 1 and 2?
Result: 5.00 to 6.00
